experiment: Partition coefficient was determined by dividing the concentration of compound in 1-octanol by concentration in aqueous phase at pH 5.0; assay type: physicochemical; settings: 1-octanol/aqueous phase, read-out: Log D5.0
Here, each record is paired with measured logD data.
Please respond with just the number, no unit label.

// below: answered molecules
CCCCN(CCCC)CCCN1CCN(CCCNc2ccnc3cc(Cl)ccc23)CC1 : -1.75
O=C(NCCCN1CCN(CCCNc2ccnc3cc(Cl)ccc23)CC1)c1ccc([N+](=O)[O-])cc1 : 0.31

With those in mind, consider the next molecule.
### Prompt Fill in logD for record O=C(NCCCN1CCN(CCCNc2ccnc3cc(Cl)ccc23)CC1)C1CC1
### Response -0.23

---

test system: Plasmodium falciparum; experiment: Antimalarial activity against Plasmodium falciparum FcB1; type: functional, organism-based
quantity.kind: pIC50
Keep in mind that pIC50 stands for -log10 of concentration in molar terms.

### Prompt Fill in pIC50 for record Clc1ccc2c(NCCCN3CCN(CCCNc4ccnc5cc(Cl)ccc45)CC3)ccnc2c1
### Response 7.64

Data credit: ChEMBL document CHEMBL1136806
